tested on: CL1-5 lung cancer cells; assay: cells; format: cell-based, human; details: Homo sapiens, CL1-5, CL1-5, highly metastatic lung cancer cells
pIC50: −log10 of the molar value.
metricName: pIC50

[Q] Look up pIC50 for this molecule: CC[C@H]1OC2(C)C(OC(C)=O)[C@@]1(C)OC(/C=C/C=C/C=C/c1oc(=O)cc(OC)c1C)[C@@H]2O (stereo partly shown)
[A] ~6.30

* * *

system: MCF-7 breast cancer cells; assay: MTT assay, cell viability; format: cell-based, human; settings: Homo sapiens, MCF7, 48 h, MCF-7, 48 hours
metricName: IC50 (µM)
Numbers only; they are read as µM.

[Q] Recorded IC50 for CC[C@H]1OC2(C)C(OC(C)=O)[C@@]1(C)OC(/C=C/C=C/C=C/c1oc(=O)cc(OC)c1C)[C@@H]2O (stereo partly shown) [aurovertin B] , please?
[A] 0.1
